- system_name: DDR2 (Homo sapiens, UniProt Q16832)
- Construct: purchased Life Technologies
- Sequence (Q16832 22-855): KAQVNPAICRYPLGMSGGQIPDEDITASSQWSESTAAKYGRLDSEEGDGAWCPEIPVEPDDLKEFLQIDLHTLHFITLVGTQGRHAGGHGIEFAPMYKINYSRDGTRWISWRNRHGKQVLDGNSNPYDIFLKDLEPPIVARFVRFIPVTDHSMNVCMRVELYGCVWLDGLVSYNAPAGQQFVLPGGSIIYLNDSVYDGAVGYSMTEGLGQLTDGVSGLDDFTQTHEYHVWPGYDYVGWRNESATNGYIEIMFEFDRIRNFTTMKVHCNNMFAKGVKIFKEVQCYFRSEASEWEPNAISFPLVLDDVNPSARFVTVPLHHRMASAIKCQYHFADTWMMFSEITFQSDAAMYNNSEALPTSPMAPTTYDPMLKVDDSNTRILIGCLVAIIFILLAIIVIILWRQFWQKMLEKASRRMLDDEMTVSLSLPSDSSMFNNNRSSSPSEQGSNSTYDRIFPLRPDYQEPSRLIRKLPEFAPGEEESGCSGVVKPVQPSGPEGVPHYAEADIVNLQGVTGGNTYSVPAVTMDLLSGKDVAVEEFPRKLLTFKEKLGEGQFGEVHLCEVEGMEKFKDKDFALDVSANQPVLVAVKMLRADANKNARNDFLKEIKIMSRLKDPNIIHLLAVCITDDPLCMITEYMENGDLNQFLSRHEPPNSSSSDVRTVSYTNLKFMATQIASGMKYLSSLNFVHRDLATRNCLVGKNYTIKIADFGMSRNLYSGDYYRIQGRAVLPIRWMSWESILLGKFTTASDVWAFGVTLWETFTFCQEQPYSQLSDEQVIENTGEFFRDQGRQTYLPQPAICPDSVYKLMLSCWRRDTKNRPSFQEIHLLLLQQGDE
- assay_notes: LanthaScreen Europium Kinase Binding assay, DDR2
- test_settings: 5 nM DDR2, 10 nM Kinase Tracer 178, 1 h at rt; Ki from IC50 by Cheng-Prusoff; read-out: Ki DDR2
experimental_readout: Ki

For orientation, consider the following solved cases.
O=C(Nc1cccc(C(F)(F)F)c1)NC1CC2(C1)CN(C(=O)c1cnn3ccc(N4CCS(=O)(=O)CC4)cc13)C2 [Example 183]	5 to 25 nM
Cn1ccn2ncc(C(=O)N3CC4(CC(OC(=O)Nc5cc(C(F)(F)F)ncn5)C4)C3)c12 [Example 297]	5 to 25 nM
O=C(CC1CC2(C1)CN(C(=O)c1cnn3ccsc13)C2)Nc1cccc(C(F)(F)F)c1 [Example 27]	< 5 nM
CN(C(=O)Nc1cc(C(C)(C)C)no1)C1CC2(C1)CN(C(=O)c1cnn3ccn(C)c13)C2 [Example 215]	25 to 100 nM

Lookup: // returns reported Ki for input Cn1ccn2ncc(C(=O)N3CC4(CC(NC(=O)Nc5cc(OC(F)(F)F)ccn5)C4)C3)c12 [Example 73]
Found: 5 to 25 nM

Lookup: // returns reported Ki for input CN(C(=O)Nc1cccc(C(F)(F)F)c1)C1CC2(C1)CN(C(=O)c1cnn3ccsc13)C2 [Example 133]
Found: 5 to 25 nM

Lookup: // returns reported Ki for input Cn1ccn2ncc(C(=O)N3CC4(CC(N(CC(F)(F)F)C(=O)Nc5cccc(C(F)(F)F)c5)C4)C3)c12 [Example 174]
Found: 5 to 25 nM

Values compiled from patent US20260285855A1.
